- Tested on: U2OS
- TEST SUMMARY: relative viability EC50 (midpoint between 100% and the lowest measured viability); higher = less toxic
- CONDITION NOTES: 72 h
REPORTED ENDPOINT: relative viability EC50

>  <COMPOUND>
COc1cccc2cc(-c3nc([C@H]4CC[C@H](C(=O)O)CC4)n4ncnc(N)c34)[nH]c12 [OSI-027]

>  <TARGET ENTITY>
U2OS

>  <relative viability EC50>
0.903 µM

$$$$
>  <COMPOUND>
CCOC(=O)c1c(C)n(C)c2ccc(O)cc12 [mecarbinate]

>  <TARGET ENTITY>
U2OS

>  <relative viability EC50>
> 10 µM

$$$$
>  <COMPOUND>
C[C@H](NC(=O)/C(C#N)=C/c1cccc(Br)n1)c1ccccc1 [WP1066]

>  <TARGET ENTITY>
U2OS

>  <relative viability EC50>
3.06 µM

$$$$
>  <COMPOUND>
CC(CCc1ccc(O)cc1)NCC(O)c1ccc(O)cc1 (stereo not drawn) [ractopamine]

>  <TARGET ENTITY>
U2OS

>  <relative viability EC50>
> 10 µM

$$$$
>  <COMPOUND>
O=C(/C=C/c1ccc(O)c2c1[C@H](C(=O)O[C@H](Cc1ccc(O)c(O)c1)C(=O)O)[C@@H](c1ccc(O)c(O)c1)O2)O[C@H](Cc1ccc(O)c(O)c1)C(=O)O [salvianolic-acid-B]

>  <TARGET ENTITY>
U2OS

>  <relative viability EC50>
> 10 µM

$$$$

For every item in the list below, what is its measured relative viability EC50?
1. N#CC(c1ccc(Cl)cc1)c1c(Cl)cc(-n2ncc(=O)[nH]c2=O)cc1Cl (stereo not drawn) [diclazuril]
2. C#C[C@]1(O)CC[C@H]2[C@@H]3CCC4=CC(=O)CCC4=C3C=C[C@@]21CC [gestrinone]
3. Cc1c(C(=O)NC2CCCCC2)sc2nc3ccc(N)cc3n12

1: > 10 µM; 2: > 10 µM; 3: > 10 µM

###

Provide the recorded drug sensitivity score for the entries that follow.
- Test system: Caco-2
- TEST SUMMARY: drug sensitivity score (DSS) for viability; higher = more toxic; extreme values may be limits of the assay
- CONDITION NOTES: 72 h
Answers are plain numbers.

Examples with their reported drug sensitivity score follow.
>  <COMPOUND>
CCCCN1CCC(CNC(=O)c2c3n(c4ccccc24)CCCO3)CC1

>  <drug sensitivity score>
0

$$$$
>  <COMPOUND>
Cc1c(C(=O)NC2CCCCC2)sc2nc3ccc(N)cc3n12

>  <drug sensitivity score>
0

$$$$
>  <COMPOUND>
C[C@]12CC[C@@H](O)C[C@@H]1CC[C@@H]1[C@@H]2CC[C@]2(C)C(c3ccccc3)=CC[C@@H]12

>  <drug sensitivity score>
0.3

$$$$
>  <COMPOUND>
COc1ccc2cc(-c3cc(-c4cc(Cl)cc(Cl)c4)nn3[C@@H](C)c3ccc(C(=O)NCCC(=O)O)cc3)ccc2c1

>  <drug sensitivity score>
0

$$$$
>  <COMPOUND>
Nc1nc(NC[C@H]2CC[C@H](CNS(=O)(=O)c3cccc4ccccc34)CC2)nc2ccccc12

>  <drug sensitivity score>
5.6

$$$$
>  <COMPOUND>
COc1ccccc1OCC(O)CNC(C)C (centres undefined)

>  <drug sensitivity score>
0

$$$$
>  <COMPOUND>
c1ccc(NCc2ccc(CNc3ccccn3)cc2)nc1

>  <drug sensitivity score>
0

$$$$
>  <COMPOUND>
CNC(=O)c1ccc(-c2cnc3ncc(Cc4ccc5ncccc5c4)n3n2)cc1F

>  <drug sensitivity score>
0

$$$$
>  <COMPOUND>
COc1ccc(C(=O)C2CCN(CC(=O)N(Cc3nc4c(c(=O)[nH]3)COCC4)CC3CC3)CC2)cc1

>  <drug sensitivity score>
0

$$$$
>  <COMPOUND>
CC(C(=O)O)c1ccc(N2Cc3ccccc3C2=O)cc1 (centres undefined)

>  <drug sensitivity score>
0

$$$$

Your task in this section: give drug sensitivity score for each listed record.
1. CC(=O)NC[C@H]1CN(c2ccc(-c3ccc(CNCc4cnn[nH]4)cc3)c(F)c2)C(=O)O1
2. N#CC(c1ccc(Cl)cc1)c1c(Cl)cc(-n2ncc(=O)[nH]c2=O)cc1Cl (centres undefined)
3. CC(C)(C)c1ccc(S(=O)(=O)/C=C/C#N)cc1

1. 0
2. 0
3. 4.8
